B1: KCTD10 (parent)
chain: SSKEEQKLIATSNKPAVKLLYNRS

- Variants of: B1
- ASSAY REMARKS: protein stability index of a GFP-peptide fusion (GPS, HEK-293T) (PSI 1-6); higher = more stable;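 also: lentivirally expressed fusions sorted by FACS into six bins by GFP to DsRed ratio, PSI derived from sequencing read proportions per bin multiplied by bin number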
- CONDITION DETAILS: c terminus: a fixed tail appended
I'd appreciate it if you could supply protein stability index values for the items below.
Provide a numeric answer; units are not to be included.

Reported protein stability index, variant E4H : ____
3.09

Likewise for Y21P ?
4.07

Likewise for S1L ?
3.69

Likewise for E5W ?
1.79

Likewise for E4S ?
3.99

Likewise for S1N ?
4.32

Likewise for E5G ?
1.71

Likewise for N22Q ?
4.09

Likewise for I9P ?
4.69

Likewise for K7V ?
3.68

Likewise for P15W ?
2.19

Likewise for S1C ?
3.82

Likewise for A16C ?
3.74

Likewise for K18L ?
3.25

Likewise for S2E ?
4.43

Likewise for K3L ?
4.07

Likewise for S24R ?
4.46

Likewise for K7F ?
3.02

Likewise for K7G ?
4.45

Likewise for A16N ?
4.19

Likewise for R23I ?
3.37

Likewise for E5F ?
2.26

Likewise for A16R ?
3.8

Likewise for K18E ?
4.34

Likewise for Q6D ?
4.5

Likewise for K7E ?
4.4

Likewise for S12N ?
4.02

Likewise for V17C ?
4.21

Likewise for L19S ?
4.18

Likewise for V17F ?
2.74

Likewise for E4I ?
3.06

Likewise for T11S ?
4.26

Likewise for E5Q ?
3.83

Likewise for I9R ?
4.33

Likewise for V17Y ?
3.51

Likewise for A10T ?
4.39

Likewise for S12F ?
3.34

Likewise for L8E ?
4.96

Likewise for K18M ?
3.45

Likewise for N13I ?
3.21

Likewise for L20S ?
4.35

Likewise for N13R ?
3.33

Likewise for K14V ?
3.96

Likewise for S24E ?
4.55

Likewise for P15L ?
2.93

Likewise for S2T ?
3.86

Likewise for K18N ?
4.26

Likewise for T11Y ?
3.6

Likewise for S24K ?
4.7

Likewise for N22F ?
3.17

Likewise for S1K ?
4.12

Likewise for K7R ?
3.92

Likewise for N22T ?
4.12

Likewise for L8I ?
4.32

Likewise for S24G ?
4.04

Likewise for S12V ?
3.88

Likewise for L20Q ?
4.28

Likewise for N22D ?
4.55

Likewise for K18H ?
3.89

Likewise for I9L ?
3.98

Likewise for I9H ?
3.81

Likewise for S1M ?
4.26

Likewise for N22Y ?
2.96

Likewise for A10V ?
3.45

Likewise for Q6H ?
4.08

Likewise for Y21C ?
4.73

Likewise for I9N ?
4.36

Likewise for T11D ?
4.68
